Taken from ChEMBL document CHEMBL3399993.

Assay: Cytotoxicity against mouse RAW264.7 cells assessed as inhibition of cell growth at 50 uM after 48 hrs by MTT assay
Format: cell-based
Details: read-out: GI
Each entry belongs to exactly one class, chosen by where its inhibition at 48 h, 50 µM falls: b0 (below 30%), b1 (30% to below 40%), b2 (40% or more)

Cc1cc(N2CCC(NC(=O)Nc3ccccc3)CC2)c2ccccc2n1 b1
COc1ccc(NC(=O)NC2CCN(c3cc(C)nc4ccc(OC)cc34)CC2)cc1 b0
Cc1ccc(NC(=S)NC2CCN(c3cc(C)nc4ccccc34)CC2)cc1 b0
Cc1cc(N2CCC(NC(=O)Nc3ccc(F)cc3)CC2)c2ccccc2n1 b2
Cc1cc(N2CCC(NC(=O)Nc3ccc(Cl)cc3)CC2)c2cc(F)ccc2n1 b2

Q: Which category fits this record: COc1ccc2nc(C)cc(N3CCC(NC(=S)Nc4ccc([N+](=O)[O-])cc4)CC3)c2c1
Result: b0

Q: Which category fits this record: Cc1cc(N2CCC(NC(=S)Nc3ccccc3)CC2)c2cc(F)ccc2n1
Result: b1

Q: Which category fits this record: COc1ccc(NC(=S)NC2CCN(c3cc(C)nc4ccc(C(F)(F)F)cc34)CC2)cc1
Result: b2

Q: Which category fits this record: COc1ccc2nc(C)cc(N3CCC(NC(=O)Nc4ccc(F)cc4)CC3)c2c1
Result: b0

Q: Which category fits this record: Cc1cc(N2CCC(NC(=S)Nc3ccc(F)cc3)CC2)c2ccccc2n1
Result: b1

Q: Which category fits this record: COc1ccc2nc(C)cc(N3CCC(NC(=S)Nc4ccc(C)cc4)CC3)c2c1
Result: b2

Q: Which category fits this record: COc1ccc2nc(C)cc(N3CCC(NC(=O)Nc4ccccc4)CC3)c2c1
Result: b2

---

Quick reference: pIC50 of the listed items.
Molecular target: DNA gyrase subunit B (Mycobacterium smegmatis, UniProt P0C559)
Sequence (P0C559 whole entry): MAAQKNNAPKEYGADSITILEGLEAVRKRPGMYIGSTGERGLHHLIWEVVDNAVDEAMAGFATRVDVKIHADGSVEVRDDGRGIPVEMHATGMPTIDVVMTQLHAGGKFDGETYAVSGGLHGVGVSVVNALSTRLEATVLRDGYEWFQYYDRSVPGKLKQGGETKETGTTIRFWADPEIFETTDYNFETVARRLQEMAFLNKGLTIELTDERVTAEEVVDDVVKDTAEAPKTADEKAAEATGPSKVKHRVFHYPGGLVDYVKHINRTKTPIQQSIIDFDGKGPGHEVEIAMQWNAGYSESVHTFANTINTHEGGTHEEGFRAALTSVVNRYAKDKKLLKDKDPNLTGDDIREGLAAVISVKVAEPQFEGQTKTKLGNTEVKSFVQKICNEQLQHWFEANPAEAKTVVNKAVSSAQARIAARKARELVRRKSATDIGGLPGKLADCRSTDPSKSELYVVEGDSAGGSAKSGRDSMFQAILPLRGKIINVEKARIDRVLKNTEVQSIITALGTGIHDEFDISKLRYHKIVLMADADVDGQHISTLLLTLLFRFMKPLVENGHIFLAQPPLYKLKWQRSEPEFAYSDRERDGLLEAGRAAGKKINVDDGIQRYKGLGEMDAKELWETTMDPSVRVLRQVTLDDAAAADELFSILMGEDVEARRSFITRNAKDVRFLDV
Experiment: Inhibition of Mycobacterium smegmatis GyrB ATPase activity expressed in Escherichia coli BL21 (DE3) pLysS cells after 100 mins by inorganic phosphate release detection based malachite green reagent assay
Please treat pIC50 as minus the base-10 logarithm of the molar concentration.

Cc1ccc(NC(=O)NC2CCN(c3cc(C)nc4ccccc34)CC2)cc1 4.69
Cc1cc(N2CCC(NC(=O)Nc3ccccc3)CC2)c2cc(F)ccc2n1 4.69
COc1ccc(NC(=S)NC2CCN(c3cc(C)nc4ccc(F)cc34)CC2)cc1 4.40
COc1ccc(NC(=O)NC2CCN(c3cc(C)nc4ccc(OC)cc34)CC2)cc1 5.03
Cc1cc(N2CCC(NC(=O)Nc3ccc(F)cc3)CC2)c2ccccc2n1 4.46

Q: Please report the recorded pIC50 for Cc1ccc(NC(=O)NC2CCN(c3cc(C)nc4ccc(C(F)(F)F)cc34)CC2)cc1 .
Result: 4.78

Q: Please report the recorded pIC50 for COc1ccc2nc(C)cc(N3CCC(NC(=O)Nc4ccc(F)cc4)CC3)c2c1 .
Result: 4.73

---

Target: DNA gyrase subunit A/DNA gyrase subunit B (Mycobacterium tuberculosis (strain ATCC 25618 / H37Rv), UniProt P9WG45+P9WG47)
Sequence (P9WG45 whole entry): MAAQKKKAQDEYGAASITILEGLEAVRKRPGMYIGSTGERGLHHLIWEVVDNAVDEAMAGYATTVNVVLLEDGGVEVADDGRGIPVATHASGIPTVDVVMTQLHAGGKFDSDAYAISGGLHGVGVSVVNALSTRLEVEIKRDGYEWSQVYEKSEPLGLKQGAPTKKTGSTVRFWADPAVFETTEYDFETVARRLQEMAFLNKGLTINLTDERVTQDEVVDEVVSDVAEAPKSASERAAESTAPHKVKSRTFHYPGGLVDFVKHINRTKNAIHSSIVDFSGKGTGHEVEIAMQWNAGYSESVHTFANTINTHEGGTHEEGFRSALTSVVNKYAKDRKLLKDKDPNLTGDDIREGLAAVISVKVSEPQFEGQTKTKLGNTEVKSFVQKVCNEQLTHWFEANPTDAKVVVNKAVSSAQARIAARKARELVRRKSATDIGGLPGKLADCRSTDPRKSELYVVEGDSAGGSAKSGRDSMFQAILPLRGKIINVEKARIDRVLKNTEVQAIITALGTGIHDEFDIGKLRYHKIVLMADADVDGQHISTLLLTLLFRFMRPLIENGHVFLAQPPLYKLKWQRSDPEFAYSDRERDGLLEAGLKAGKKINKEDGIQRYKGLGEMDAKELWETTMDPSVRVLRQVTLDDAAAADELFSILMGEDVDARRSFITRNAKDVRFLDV
Sequence (P9WG47 whole entry): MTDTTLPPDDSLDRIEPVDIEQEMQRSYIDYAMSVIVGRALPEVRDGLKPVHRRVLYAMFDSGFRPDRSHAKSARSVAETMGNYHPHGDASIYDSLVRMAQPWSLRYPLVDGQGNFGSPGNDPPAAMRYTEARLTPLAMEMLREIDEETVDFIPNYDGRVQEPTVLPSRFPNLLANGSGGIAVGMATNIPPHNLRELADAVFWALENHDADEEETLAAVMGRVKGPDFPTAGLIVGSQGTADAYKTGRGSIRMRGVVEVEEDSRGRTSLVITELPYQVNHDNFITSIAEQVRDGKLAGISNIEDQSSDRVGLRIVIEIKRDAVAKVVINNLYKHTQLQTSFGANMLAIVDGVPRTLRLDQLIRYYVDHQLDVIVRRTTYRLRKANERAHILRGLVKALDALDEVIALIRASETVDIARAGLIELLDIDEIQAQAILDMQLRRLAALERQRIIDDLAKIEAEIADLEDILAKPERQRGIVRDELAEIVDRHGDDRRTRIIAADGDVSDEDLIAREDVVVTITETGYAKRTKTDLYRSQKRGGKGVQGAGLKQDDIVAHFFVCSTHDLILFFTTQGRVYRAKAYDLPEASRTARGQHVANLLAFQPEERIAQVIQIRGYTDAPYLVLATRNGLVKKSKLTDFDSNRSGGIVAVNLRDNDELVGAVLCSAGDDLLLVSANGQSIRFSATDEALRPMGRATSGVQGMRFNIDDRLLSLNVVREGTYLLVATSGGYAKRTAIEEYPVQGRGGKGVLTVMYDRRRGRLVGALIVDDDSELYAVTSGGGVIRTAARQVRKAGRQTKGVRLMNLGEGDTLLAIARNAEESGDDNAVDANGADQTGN
Assay: Inhibition of Mycobacterium tuberculosis GyrA/GyrB using relaxed pBR322 substrate incubated for 30 mins by ethidium bromide staining and electrophoresis based DNA supercoiling assay
measuredProperty: pIC50
Please treat pIC50 as minus the base-10 logarithm of the molar concentration.

Cc1cc(N2CCC(NC(=S)Nc3ccc([N+](=O)[O-])cc3)CC2)c2cc(C(F)(F)F)ccc2n1 5.12

Q: Please report the recorded pIC50 for COc1ccc2nc(C)cc(N3CCC(NC(=S)Nc4ccc([N+](=O)[O-])cc4)CC3)c2c1 .
Result: 6.06

Q: Please report the recorded pIC50 for Cc1cc(N2CCC(NC(=O)Nc3ccccc3)CC2)c2cc(C(F)(F)F)ccc2n1 .
Result: 5.08

Q: Please report the recorded pIC50 for COc1ccc(NC(=O)NC2CCN(c3cc(C)nc4ccc(C(F)(F)F)cc34)CC2)cc1 .
Result: 4.70

Q: Please report the recorded pIC50 for Cc1cc(N2CCC(NC(=S)Nc3ccc([N+](=O)[O-])cc3)CC2)c2ccccc2n1 .
Result: 5.92

Q: Please report the recorded pIC50 for Cc1cc(N2CCC(NC(=S)Nc3ccc(F)cc3)CC2)c2ccccc2n1 .
Result: 4.78

Q: Please report the recorded pIC50 for Cc1ccc(NC(=O)NC2CCN(c3cc(C)nc4ccc(F)cc34)CC2)cc1 .
Result: 5.05

Q: Please report the recorded pIC50 for COc1ccc(NC(=S)NC2CCN(c3cc(C)nc4ccc(OC)cc34)CC2)cc1 .
Result: 5.21

Q: Please report the recorded pIC50 for Cc1cc(N2CCC(NC(=S)Nc3ccccc3)CC2)c2ccccc2n1 .
Result: 5.03

---

Target: DNA gyrase subunit A/DNA gyrase subunit B (Mycobacterium tuberculosis (strain ATCC 25618 / H37Rv), UniProt P9WG45+P9WG47)
Assay: Inhibition of Mycobacterium tuberculosis GyrA/GyrB using relaxed pBR322 substrate incubated for 30 mins by ethidium bromide staining and electrophoresis based DNA supercoiling assay
Kindly apply the following: label 1 if IC50 is less than 20 µM, label 0 in every other case.

Solved cases below.
COc1ccc(NC(=S)NC2CCN(c3cc(C)nc4ccc(C(F)(F)F)cc34)CC2)cc1 label 0
COc1ccc2nc(C)cc(N3CCC(NC(=O)Nc4ccc(Cl)cc4)CC3)c2c1 label 1
Cc1ccc(NC(=S)NC2CCN(c3cc(C)nc4ccc(F)cc34)CC2)cc1 label 0
Cc1cc(N2CCC(NC(=S)Nc3ccccc3)CC2)c2cc(F)ccc2n1 label 0
Cc1cc(N2CCC(NC(=S)Nc3ccc(Cl)cc3)CC2)c2cc(F)ccc2n1 label 0

Q: For this molecule, is IC50 lower than 20 µM? Cc1cc(N2CCC(NC(=O)Nc3ccc([N+](=O)[O-])cc3)CC2)c2ccccc2n1
Result: label 1

Q: For this molecule, is IC50 lower than 20 µM? Cc1ccc(NC(=S)NC2CCN(c3cc(C)nc4ccc(C(F)(F)F)cc34)CC2)cc1
Result: label 1

Q: For this molecule, is IC50 lower than 20 µM? COc1ccc2nc(C)cc(N3CCC(NC(=O)Nc4ccc(C)cc4)CC3)c2c1
Result: label 1

Q: For this molecule, is IC50 lower than 20 µM? Cc1ccc(NC(=O)NC2CCN(c3cc(C)nc4ccccc34)CC2)cc1
Result: label 1

Q: For this molecule, is IC50 lower than 20 µM? Cc1cc(N2CCC(NC(=S)Nc3ccc([N+](=O)[O-])cc3)CC2)c2cc(F)ccc2n1
Result: label 0

Q: For this molecule, is IC50 lower than 20 µM? COc1ccc(NC(=O)NC2CCN(c3cc(C)nc4ccccc34)CC2)cc1
Result: label 1

Q: For this molecule, is IC50 lower than 20 µM? Cc1ccc(NC(=O)NC2CCN(c3cc(C)nc4ccc(C(F)(F)F)cc34)CC2)cc1
Result: label 1

Q: For this molecule, is IC50 lower than 20 µM? Cc1cc(N2CCC(NC(=O)Nc3ccc(F)cc3)CC2)c2cc(C(F)(F)F)ccc2n1
Result: label 1

Q: For this molecule, is IC50 lower than 20 µM? COc1ccc2nc(C)cc(N3CCC(NC(=O)Nc4ccc(F)cc4)CC3)c2c1
Result: label 1

Q: For this molecule, is IC50 lower than 20 µM? Cc1cc(N2CCC(NC(=S)Nc3ccc(Cl)cc3)CC2)c2cc(C(F)(F)F)ccc2n1
Result: label 1

Q: For this molecule, is IC50 lower than 20 µM? Cc1cc(N2CCC(NC(=O)Nc3ccccc3)CC2)c2ccccc2n1
Result: label 1

Q: For this molecule, is IC50 lower than 20 µM? Cc1cc(N2CCC(NC(=O)Nc3ccc(F)cc3)CC2)c2cc(F)ccc2n1
Result: label 1

Q: For this molecule, is IC50 lower than 20 µM? COc1ccc(NC(=S)NC2CCN(c3cc(C)nc4ccc(F)cc34)CC2)cc1
Result: label 1

Q: For this molecule, is IC50 lower than 20 µM? COc1ccc2nc(C)cc(N3CCC(NC(=S)Nc4ccc(F)cc4)CC3)c2c1
Result: label 1

---

Target: DNA gyrase subunit B (Mycobacterium smegmatis)
Experiment: Inhibition of Mycobacterium smegmatis GyrB ATPase activity expressed in Escherichia coli BL21 (DE3) pLysS cells after 100 mins by inorganic phosphate release detection based malachite green reagent assay
Design: species or system Mycolicibacterium smegmatis
measuredProperty: pIC50
Please treat pIC50 as minus the base-10 logarithm of the molar concentration.

// known answers, use as guide
Cc1cc(N2CCC(NC(=O)Nc3ccc(Cl)cc3)CC2)c2ccccc2n1 4.89
COc1ccc(NC(=S)NC2CCN(c3cc(C)nc4ccc(OC)cc34)CC2)cc1 5.00
COc1ccc2nc(C)cc(N3CCC(NC(=O)Nc4ccc(C)cc4)CC3)c2c1 4.94
Cc1cc(N2CCC(NC(=S)Nc3ccccc3)CC2)c2ccccc2n1 4.90

Turning now to a further record.
Q: Please report the recorded pIC50 for Cc1cc(N2CCC(NC(=S)Nc3ccc(Cl)cc3)CC2)c2ccccc2n1 .
Result: 4.91
